Entry source: the supplement of paper PMC11865577

Test system: TO-3-N3 (biotin conjugate)
Assay: pull-down binding Z-score (relative to library population); higher = stronger binding
Conditions: RNA library: Library-2
// label = true if pull-down binding Z-score is not less than -0.05, otherwise false

Ask | Please tell me: is the sequence UAGGCCCACUGCUCAGUGGAGC [hsa-mir-7847] at or over -0.05 in terms of pull-down binding Z-score?
Reply | false

Ask | // repeat for ACCAGGAGUUUUCUGUGGUGUAGAUGCUGUAAAUUUACUUACUAAUAUGUUUACACCACUAAUUCAACCUAUUGGU [SHAPE_invitro_SARS-CoV-2_Motif_181] and report
Reply | true

Ask | // repeat for CUUCAGCCCCAGGAAGCCUUGGUCGGGGGCAGGAG [hsa-mir-647] and report
Reply | true

Ask | // repeat for GGAAAUGAUUCC [IAV_invivo_PB2_1_Motif_4+IAV_invivo_PB2_1_Motif_4] and report
Reply | false

Ask | // repeat for CUCCAGGAGGGG [IAV_invivo_PB2_1_Motif_10+IAV_invivo_PB2_1_Motif_10] and report
Reply | false

Others:
Ask | Please tell me: is the sequence UGUUGUAAAUAAGGGACACUUUGAUGGACAACA [DMSMaPseq_invitro_SARS-CoV-2_Motif_348] at or over -0.05 in terms of pull-down binding Z-score?
Reply | false

Ask | // repeat for UGGAGGAGUCUGGUGGCCUGUUCUCUU [hsa-mir-6754] and report
Reply | false

Ask | // repeat for CUGUUGUGCCUAAUUCAGAG [hsa-mir-296] and report
Reply | false

Ask | // repeat for GCCAGUUGGAGGC [IAV_invivo_PB1_2_Motif_15+IAV_invivo_PB1_2_Motif_15] and report
Reply | false

Ask | // repeat for CCUCCCCCAGUGCCAGG [hsa-mir-3196] and report
Reply | false

Ask | // repeat for UGGAGGGGGUUUGUUUGCUUAUUCCCCUCU [hsa-mir-6737] and report
Reply | true

Ask | // repeat for CAGUGGGGACAUG [hsa-mir-4531] and report
Reply | true

Ask | // repeat for GUUACUAAUCUAACUAAUUGUAAC [hsa-mir-582] and report
Reply | true
